EC50 by entry:
test system: HeLa cells; experiment: cells; format: cell-based; details: read-out: CellCycle G2/M

| COMPOUND | EC50 |
| --- | --- |
| CC(C)=CCC/C(C)=C/CC/C(C)=C/C(=O)OCC(=O)[C@@]1(O)CC[C@H]2[C@@H]3CCC4=CC(=O)C=C[C@]4(C)[C@H]3[C@@H](O)C[C@@]21C | > 10 µM |
| CCC(COC(=O)c1cc(OC)c(OC)c(OC)c1)(c1ccccc1)N(C)C (stereo not drawn) | > 10 µM |
| CC(=O)Oc1ccc(C2(c3ccc(OC(C)=O)cc3)Oc3ccccc3NC2=O)cc1 [Bisoxatin diacetate] | > 10 µM |

---

system: nuclear β-catenin in C2C12 cells; assay: cells; format: cell-based; conditions: Mus musculus, C2C12; read-out: Wnt Pathway
log10 EC50 by entry:
READOUT LABEL: log10 EC50 (log10 of the value in nM)

| COMPOUND | MEASUREMENT TARGET | log10 EC50 |
| --- | --- | --- |
| C[C@@]12C(=O)OC(=O)[C@]1(C)[C@H]1CC[C@@H]2O1 [Cantharidine] | nuclear β-catenin in C2C12 cells | 3.17 |
| CCCOc1ccc2nc(NC(=O)OC)[nH]c2c1 [Oxibendazole] | nuclear β-catenin in C2C12 cells | 1.94 |
| CN(Cc1cnc2nc(N)nc(N)c2n1)c1ccc(C(=O)N[C@@H](CCC(=O)O)C(=O)O)cc1 [methotrexate, reference compound] | nuclear β-catenin in C2C12 cells | 1.06 |
| COC(=O)Nc1nc2ccc(Sc3ccccc3)cc2[nH]1 [Fenbendazole] | nuclear β-catenin in C2C12 cells | 2.64 |
| Cc1nc(Nc2ncc(C(=O)Nc3c(C)cccc3Cl)s2)cc(N2CCN(CCO)CC2)n1 [dasatinib, reference compound] | nuclear β-catenin in C2C12 cells | 0.83 |
| COC(=O)Nc1nc2ccc(C(=O)C3CC3)cc2[nH]1 [Ciclobendazole] | nuclear β-catenin in C2C12 cells | 2.54 |
| CC[C@@]1(O)C(=O)OCc2c1cc1n(c2=O)Cc2cc3c(CN(C)C)c(O)ccc3nc2-1 [topotecan] | nuclear β-catenin in C2C12 cells | 1.25 |
| COC(=O)Nc1nc2ccc(C(=O)c3cccs3)cc2[nH]1 [Nocodazole] | nuclear β-catenin in C2C12 cells | 1.64 |

---

IC50 by entry:
test system: SW480; assay: cells; assay type: cell-based; details: Homo sapiens, SW480, basal; read-out: Basal_Viability ATP SW480
READOUT LABEL: IC50 (µM)

| MOLECULE | READOUT LABEL | UNITS LABEL | VALUE QUALIFIER | VALUE |
| --- | --- | --- | --- | --- |
| COc1ccc2cc1Oc1ccc(cc1)C[C@H]1c3c(cc4c(c3Oc3cc5c(cc3OC)CCN(C)[C@@H]5C2)OCO4)CCN1C | IC50 | µM | = | 0.308 |
| COc1ccc(-c2nc3ccc(C4=NNC(=O)CC4C)cc3[nH]2)cc1 (centres unmarked) | IC50 | µM | > | 20 |
| NC(=O)C1(N2CCCCC2)CCN(CCCN2c3ccccc3CCc3ccc(Cl)cc32)CC1 | IC50 | µM | = | 3.69 |
| O=C1Nc2ccc(Cl)cc2[C@@](C#CC2CC2)(C(F)(F)F)O1 [efavirenz, reference compound] | IC50 | µM | = | 4.61 |
| CC[C@H]1CN2CCc3cc(OC)c(OC)cc3[C@@H]2C[C@@H]1C[C@H]1NCCc2cc(OC)c(OC)cc21 | IC50 | µM | = | 0.001 |
